A collection of compounds and their measured melting point

Example cases with answers are listed next.
{"columns": ["smiles.structure", "melting point"],
 "data": [
  ["CCOc1ccc(F)cc1C(=O)c1sc2ncc([N+](=O)[O-])cc2c1N", "205 °C"],
  ["CCOc1cc(OC)c(Br)cc1C(=O)c1oc2ccc(Cl)cc2c1N", "132 to 133 °C"],
  ["CCCOc1ccc(OC)cc1C(=O)c1oc2ccc(Cl)cc2c1N", "95 to 97 °C"]
]}

Now look at this entry.
Sample COc1ccc(OC(C)C)c(C(=O)c2oc3ccc(Cl)cc3c2N)c1 — what was its melting point? 131 to 132 °C

###

Tested on: tumor cells
assay.method.text: Mitochondrial membrane potential, JC-1 (read-out 48 h)
Format: cell-based
run.parameters: Jily cells, JC-1, 48 h; read-out: Mitochondrial membrane potential (read-out 48 h) Jily
pEC50: −log10 of the molar value.
measured.property: pEC50

Below, each entry is followed by its recorded pEC50 result.
{"columns": ["compound", "subject.of.test", "reported.measurement"],
 "data": [
  ["CCOc1ccc(C(=O)OC)cc1C(=O)c1oc2ccc(Cl)cc2c1N", "tumor cells", "7.00 to 8.00"],
  ["CCOc1ccccc1C(=O)c1oc2ccc(I)cc2c1N", "tumor cells", "< 6.00"],
  ["CCOc1ccccc1C(=O)c1oc2ccc(N)cc2c1N", "tumor cells", "6.00 to 7.00"],
  ["COc1ccc2oc(C(=O)c3cccnc3N3CCCCC3)cc2c1 [Example 91]", "tumor cells", "7.00 to 8.00"],
  ["CCOc1ccccc1C(=O)c1oc2ccc(Cl)cc2c1N", "tumor cells", "7.00 to 8.00"]
]}

Hi! What's the reported pEC50 for N#Cc1cnc2sc(C(=O)c3cc(F)ccc3N3CCOCC3)c(N)c2c1 on tumor cells? 6.00 to 7.00

tumor cells / pEC50 / Nc1cnc2sc(C(=O)c3cc(F)ccc3N3CCOCC3)c(N)c2c1 : value? 6.00 to 7.00

Observed pEC50 on tumor cells for Nc1c(C(=O)c2cccnc2N2CCOCC2)oc2ccc(Cl)cc12 , please. 7.00 to 8.00

For tumor cells, provide pEC50 of COc1ccc(OC)c(C(=O)c2oc3ccc(Cl)cc3c2O)c1 [Ref C, reference compound] please. < 6.00

Tell me reported pEC50 for CCOc1ncccc1C(=O)c1oc2ccc(Cl)cc2c1N , tested with tumor cells. 7.00 to 8.00

###

Tested on: tumor cells
assay.method.text: Mitochondrial membrane potential, JC-1 (read-out 48 h)
Assay type: cell-based
run.parameters: Jily cells, JC-1, 48 h; read-out: Mitochondrial membrane potential (read-out 48 h) Jily
measured.property: EC50

Some solved entries appear below for comparison.
{"columns": ["molecule", "reported.measurement"],
 "data": [
  ["CCCOc1ccc(F)cc1C(=O)c1sc2ncc(N)cc2c1N", "> 1000 nM"],
  ["CCOc1ccc(F)cc1C(=O)c1cc2cc(Oc3ccccn3)ccc2o1", "100 to 1000 nM"],
  ["CCOc1ccc([N+](=O)[O-])cc1C(=O)c1oc2ccc(Cl)cc2c1N", "< 10 nM"],
  ["CCOc1ccc(F)cc1C(=O)c1sc2ncc([N+](=O)[O-])cc2c1N", "> 1000 nM"],
  ["Nc1c(C(=O)c2ccccc2N2CC=CCC2)sc2ncccc12", "> 1000 nM"]
]}

Pending molecule:
If you can, please state the reported EC50 value of COc1ccc2oc(C(=O)c3cc(F)ccc3N3CC=CCC3)cc2c1 . < 10 nM
